Tgt: Kappa-type opioid receptor (Rattus norvegicus)
Sequence (P34975 whole entry): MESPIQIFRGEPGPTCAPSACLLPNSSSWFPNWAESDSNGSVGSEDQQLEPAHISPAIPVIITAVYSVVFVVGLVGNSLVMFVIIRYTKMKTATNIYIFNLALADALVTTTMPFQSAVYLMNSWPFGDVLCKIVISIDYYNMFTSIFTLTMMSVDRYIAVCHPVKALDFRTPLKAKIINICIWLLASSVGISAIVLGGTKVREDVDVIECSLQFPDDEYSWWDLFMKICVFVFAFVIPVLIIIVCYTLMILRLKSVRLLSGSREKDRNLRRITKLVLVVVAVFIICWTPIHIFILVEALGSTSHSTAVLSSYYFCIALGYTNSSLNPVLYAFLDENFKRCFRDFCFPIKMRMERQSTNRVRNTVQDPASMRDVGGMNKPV
Assay Endpoint: pKi
Reminder that pKi means the negative base-10 logarithm of the concentration expressed in mol/L.

Item: COc1ccccc1S(=O)(=O)Nc1ccc(C)cc1Oc1ccc2c(N)nccc2c1 | pKi: 4.92

====

Tgt: Mas-related G-protein coupled receptor member X1 (Homo sapiens, UniProt Q96LB2)
Sequence (Q96LB2 whole entry): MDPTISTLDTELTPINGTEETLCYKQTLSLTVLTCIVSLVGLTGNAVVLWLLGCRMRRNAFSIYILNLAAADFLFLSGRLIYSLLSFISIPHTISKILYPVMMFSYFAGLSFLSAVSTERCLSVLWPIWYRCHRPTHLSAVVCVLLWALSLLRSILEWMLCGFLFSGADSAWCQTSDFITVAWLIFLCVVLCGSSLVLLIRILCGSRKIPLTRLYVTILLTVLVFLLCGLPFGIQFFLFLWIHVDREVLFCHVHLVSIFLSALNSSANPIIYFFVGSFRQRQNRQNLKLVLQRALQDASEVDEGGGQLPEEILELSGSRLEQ
Assay: Agonist activity at human MrgprX1 expressed in HEK293 cells incubated for 2 mins by Fluo4AM dye based FLIPR assay relative to BAM8-22
Assay type: cell-based
Assay Endpoint: Emax

In [3]: df
Out[3]:
                            chemical_smiles                                       tgt    val
0    COc1cc(CNc2ccc(C(=N)N)cc2)ccc1OCCC(C)C  Mas-related G-protein coupled receptor member X1 (Homo sapiens, UniProt Q96LB2)  > 95%
1  COc1ccccc1S(=O)(=O)Nc1ccc(C)cc1Oc1ccc(C(=N)N)cc1  Mas-related G-protein coupled receptor member X1 (Homo sapiens, UniProt Q96LB2)  > 95%

With Mas-related G-protein coupled receptor member X1 (Homo sapiens, UniProt Q96LB2) as the test system, Cc1ccc(NS(=O)(=O)c2ccccc2OC(F)(F)F)c(Oc2ccc(C(=N)N)cc2)c1 showed Emax of > 95%

With Mas-related G-protein coupled receptor member X1 (Homo sapiens, UniProt Q96LB2) as the test system, COc1cc(CNc2ccc(C(=N)N)cc2)ccc1OCc1ccc(-n2cccc2)cc1 showed Emax of > 95%

====

Ki overview
Tgt: Delta-type opioid receptor (Rattus norvegicus)
Sequence (P33533 whole entry): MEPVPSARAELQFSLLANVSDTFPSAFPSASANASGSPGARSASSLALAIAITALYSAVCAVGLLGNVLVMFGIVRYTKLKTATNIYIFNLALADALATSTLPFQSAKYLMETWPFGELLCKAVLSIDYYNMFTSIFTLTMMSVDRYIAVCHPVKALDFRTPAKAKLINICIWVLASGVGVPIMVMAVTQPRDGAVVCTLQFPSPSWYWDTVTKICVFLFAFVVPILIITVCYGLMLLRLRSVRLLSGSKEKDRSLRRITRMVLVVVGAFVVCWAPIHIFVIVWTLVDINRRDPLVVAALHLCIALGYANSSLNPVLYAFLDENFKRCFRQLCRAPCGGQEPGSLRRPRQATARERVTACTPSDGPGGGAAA
Assay: Displacement of [3H]DADLE from delta opioid receptor in rat brain after 60 mins by liquid scintillation counting method
Just the number please, in nM, no unit attached.

>>> print(df.to_string())
                            chemical_smiles  assay_endpoint   val
0  COc1ccccc1S(=O)(=O)Nc1ccc(C)cc1Oc1ccc2c(N)nccc2c1              Ki  2470

Item: COc1ccccc1S(=O)(=O)Nc1ccc(C)cc1Oc1ccc(C(=N)N)cc1 | Ki: 220

====

Assay: Ratio of AUC in spinal cord to AUC in plasma of CD1 mouse at 10 mg/kg, iv administered as single dose by LC-MS/MS analysis
Assay type: ADME, organism-based
Assay Endpoint: Kp
Please respond with just the number, no unit label.

Item: COc1ccccc1S(=O)(=O)Nc1ccc(C)cc1Oc1ccc2c(N)nccc2c1 | Kp: 6.3

====

Tgt: Mas-related G-protein coupled receptor member X1 (Homo sapiens, UniProt Q96LB2)
Assay: Agonist activity at human MrgprX1 expressed in HEK293 cells incubated for 2 mins by Fluo4AM dye based FLIPR assay
pEC50 overview
Reminder that pEC50 means the negative base-10 logarithm of the concentration expressed in mol/L.

Worked examples, 8 molecules total:
                            chemical_smiles                                       tgt   val
0  COc1cc(CNc2ccc(C(=N)N)cc2)ccc1OCc1ccc(-n2cccc2)cc1  Mas-related G-protein coupled receptor member X1 (Homo sapiens, UniProt Q96LB2)  6.17
1  Cc1ccc(NS(=O)(=O)c2ccc(F)cc2)c(Oc2ccc(C(=N)N)cc2)c1  Mas-related G-protein coupled receptor member X1 (Homo sapiens, UniProt Q96LB2)  5.68
2  COc1ccccc1S(=O)(=O)Nc1ccc(C)cc1Oc1ccc2c(N)nccc2c1  Mas-related G-protein coupled receptor member X1 (Homo sapiens, UniProt Q96LB2)  7.30
3  COc1cc(CNc2ccc(C(=N)N)cc2)ccc1OCc1cccnc1  Mas-related G-protein coupled receptor member X1 (Homo sapiens, UniProt Q96LB2)  5.28
4  COc1ccccc1S(=O)(=O)Nc1ccc(C)cc1Oc1cccc(C(=N)N)c1  Mas-related G-protein coupled receptor member X1 (Homo sapiens, UniProt Q96LB2)  5.44
5  Cc1ccc(S(=O)(=O)Nc2ccc(C)cc2Oc2ccc(C(=N)N)cc2)cc1  Mas-related G-protein coupled receptor member X1 (Homo sapiens, UniProt Q96LB2)  6.80
6  COc1ccccc1S(=O)(=O)Nc1ccc(C)cc1Oc1ccccc1C(=N)N  Mas-related G-protein coupled receptor member X1 (Homo sapiens, UniProt Q96LB2)  4.64
7  COc1ccccc1S(=O)(=O)Nc1ccc(C)cc1Oc1ccc(C(=N)N)cc1  Mas-related G-protein coupled receptor member X1 (Homo sapiens, UniProt Q96LB2)  7.00

Item: N=C(N)c1ccc(NCc2ccc(OCc3ccccc3)cc2)cc1 | pEC50: 5.28

All values here come from ChEMBL document CHEMBL4334491.
